The measurements presented in this section are drawn from paper PMC12396409.

Let's look at some compounds and their measured percent parasite growth at 2 µg/mL.
Tested on: T. gondii RH strain (RH-Tub-eYFP) tachyzoites
Test: microbe, parasite or virus in culture
Type: cell-based, Toxoplasma gondii
Conditions: Toxoplasma gondii, 72 h, T. gondii, 72 h, screen at 2 μg/mL, replicate 1; read-out: Tg_72h_%Growth_Rep1

Compound	U	percent parasite growth at 2 µg/mL
CN1C(=O)[C@@]23C[C@]4([C@]56C[C@@]78SS[C@@](CO)(C(=O)N7[C@H]5Nc5ccccc56)N(C)C8=O)c5ccccc5N[C@@H]4N2C(=O)[C@]1(CO)SS3 [Chaetocin]	%	0.84
CC(=O)C1=C(O)[C@@H]2[C@H]3c4c[nH]c5cccc(c45)C[C@H]3C(C)(C)N2C1=O [Cyclopiazonic acid]	%	0.36
CN(C)[C@@H]1C(O)=C(C(N)=O)C(=O)[C@@]2(O)C(O)=C3C(=O)c4c(O)ccc(Cl)c4[C@@](C)(O)[C@H]3C[C@@H]12 [Chlortetracycline]	%	102
